Origin of measurements: paper PMC11879040

- Tested on: HepaRG cells
- assay-remarks: High-throughput transcriptomics (HTTr, TempO-Seq), HepaRG, 24 h
- Type: cell-based, human
- run-conditions: HepaRG; HTTr BIFROST PoD
Where a name gives a salt, the structure may show the parent alone.
recorded-metric: pod_httr_bifrost PoD (µM)

{"columns": ["molecule", "recorded-metric", "units-label", "numeric-readout"],
 "data": [
  ["CN(C)C(=N)N=C(N)N [Metformin, N,N-Dimethyltriimidodicarbonic diamide]", "pod_httr_bifrost PoD", "µM", 80.527],
  ["CC(=O)N1CCN(c2ccc(OC[C@H]3CO[C@](Cn4ccnc4)(c4ccc(Cl)cc4Cl)O3)cc2)CC1", "pod_httr_bifrost PoD", "µM", 0.01699],
  ["CC1(C)O[C@@H]2[C@@H](CO[C@@]3(COS(N)(=O)=O)OC(C)(C)O[C@@H]23)O1 [Topiramate]", "pod_httr_bifrost PoD", "µM", 28.4144],
  ["O=C(O)COCCN1CCN(C(c2ccccc2)c2ccc(Cl)cc2)CC1 (stereo not shown) [Cetirizine_dihydrochloride]", "pod_httr_bifrost PoD", "µM", 0.6956]
]}

----------
- System: HepG2 cells
- assay-remarks: Cell stress panel (CSP), 24 h, 8 concentrations, BIFROST global PoD
- Type: cell-based
- run-conditions: HepG2; cell stress panel PoD
Where a name gives a salt, the structure may show the parent alone.
condition met means recorded pod_cell_stress PoD is 3 µM or above; condition not met means it is below 3 µM.

{"columns": ["compound", "qualitative-label"],
 "data": [
  ["CN(C)[C@@H]1C(O)=C(C(N)=O)C(=O)[C@@]2(O)C(O)=C3C(=O)c4c(O)cccc4[C@@](C)(O)[C@H]3[C@H](O)[C@@H]12 [Oxytetracycline_hydrochloride]", "condition not met"],
  ["CCCCCCC(O)CO (stereo not shown) [1,2-Octanediol, Octane-1,2-diol]", "condition met"],
  ["O=C(O)COCCN1CCN(C(c2ccccc2)c2ccc(Cl)cc2)CC1 (stereo not shown) [Cetirizine dihydrochloride]", "condition met"],
  ["C[C@H]1O[C@@H](O[C@H]2[C@@H](O)C[C@H](O[C@H]3[C@@H](O)C[C@H](O[C@H]4CC[C@@]5(C)[C@H](CC[C@@H]6[C@@H]5C[C@@H](O)[C@]5(C)[C@@H](C7=CC(=O)OC7)CC[C@]65O)C4)O[C@@H]3C)O[C@@H]2C)C[C@H](O)[C@@H]1O [Digoxin]", "condition not met"],
  ["C[C@@H]1C[C@H]2[C@@H]3CCC4=CC(=O)C=C[C@]4(C)[C@@]3(F)[C@@H](O)C[C@]2(C)[C@@]1(O)C(=O)CO [Dexamethasone]", "condition met"],
  ["O=P1(N(CCCl)CCCl)NCCCO1 (stereo not shown) [Cyclophosphamide]", "condition met"],
  ["CC1(C)O[C@@H]2[C@@H](CO[C@@]3(COS(N)(=O)=O)OC(C)(C)O[C@@H]23)O1 [Topiramate]", "condition met"]
]}

----------
- experimental-target: Peroxisome proliferator-activated receptor alpha, PPARA (h) (Homo sapiens)
- Sequence (Q07869 whole entry): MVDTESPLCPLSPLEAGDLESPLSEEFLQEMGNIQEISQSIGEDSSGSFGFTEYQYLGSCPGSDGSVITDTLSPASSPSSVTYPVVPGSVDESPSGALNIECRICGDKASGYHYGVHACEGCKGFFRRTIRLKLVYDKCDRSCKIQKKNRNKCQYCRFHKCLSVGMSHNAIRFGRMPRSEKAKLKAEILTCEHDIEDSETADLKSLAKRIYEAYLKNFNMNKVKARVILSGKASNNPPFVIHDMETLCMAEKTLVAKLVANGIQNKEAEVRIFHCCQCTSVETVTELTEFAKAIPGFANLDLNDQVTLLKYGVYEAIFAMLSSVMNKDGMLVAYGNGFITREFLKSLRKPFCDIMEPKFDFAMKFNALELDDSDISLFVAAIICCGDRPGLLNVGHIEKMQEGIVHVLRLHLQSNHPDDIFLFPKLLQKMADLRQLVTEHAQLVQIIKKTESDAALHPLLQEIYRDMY
- assay-remarks: IPP PPARA coactivator recruitment (antagonist)
Where a name gives a salt, the structure may show the parent alone.
recorded-metric: IC50

{"columns": ["molecule", "recorded-metric", "result"],
 "data": [
  ["NNc1nncc2ccccc12 [Hydralazine hydrochloride]", "IC50", "> 28.2 µM"]
]}

----------
- System: Potassium Voltage-Gated Channel Kv non-selective, KCNQ1 (r)
- assay-remarks: IPP KCNQ1 binding (antagonist radioligand)
- Design: species or system rat
- run-conditions: IPP screening at 100 uM; control α-dendrotoxin
This listing pairs compounds with measured Specific binding.
recorded-metric: Specific binding

{"columns": ["compound", "result"],
 "data": [
  ["CCOc1cc(CCC(C)=O)ccc1O [Ethylzingerone, 4-(3-Ethoxy-4-hydroxyphenyl)butan-2-one]", "0.7%"],
  ["CCN(CC)C(=O)c1cccc(C)c1 [DEET, N,N-Diethyl-3-methylbenzamide]", "-4.9%"],
  ["CC(C)[C@H](N)C(=O)O [L-valine, L-Valine]", "15.0%"],
  ["CC(C)(CO)C(O)C(=O)NCCCO (centres unmarked) [Panthenol]", "-4.3%"],
  ["CC(=O)Nc1ccc(O)cc1 [Paracetamol, N-(4-Hydroxyphenyl)acetamide]", "-3.6%"]
]}

----------
This listing pairs compounds with measured Specific binding.
- Test system: Gamma-aminobutyric acid receptor subunit alpha-1 BZD site, GABRA1A (r)
- Format: binding, rat
- run-conditions: IPP screening at 100 uM; control diazepam

{"columns": ["compound", "units-label", "Specific binding"],
 "data": [
  ["CC1(C)O[C@@H]2[C@@H](CO[C@@]3(COS(N)(=O)=O)OC(C)(C)O[C@@H]23)O1 [Topiramate]", "%", 9.7],
  ["CCN(CC)C(=O)c1cccc(C)c1 [DEET, N,N-Diethyl-3-methylbenzamide]", "%", 8.9],
  ["CC(C)Cc1ccc(C(C)C(=O)O)cc1 (stereo not drawn)", "%", 5.3],
  ["CC(=O)CC(c1ccccc1)c1c([O-])c2ccccc2oc1=O.[Na+] (stereo not drawn)", "%", 0.6],
  ["CCN(CC)CCNC(=O)c1cc(Cl)c(N)cc1OC [Metoclopramide]", "%", 29.4],
  ["CCOc1cc(CCC(C)=O)ccc1O [Ethylzingerone, 4-(3-Ethoxy-4-hydroxyphenyl)butan-2-one]", "%", -2.5]
]}

----------
- System: Tubulin (r)
- assay-remarks: IPP Tubulin binding
- Design: species or system rat
- run-conditions: 10 uM; ligand/control Colchicine
Counter-ions that a name gives are not always drawn.

{"columns": ["compound", "IPP screening %, Specific binding, %"],
 "data": [
  ["CC(C)(C)c1ccc(CCOc2ncnc3ccccc23)cc1 [Fenazaquin]", -2.0],
  ["O=C(O)COCCN1CCN(C(c2ccccc2)c2ccc(Cl)cc2)CC1 (stereo not drawn) [Cetirizine dihydrochloride]", 14.0],
  ["C[C@H]1O[C@@H](O[C@H]2[C@@H](O)C[C@H](O[C@H]3[C@@H](O)C[C@H](O[C@H]4CC[C@@]5(C)[C@H](CC[C@@H]6[C@@H]5C[C@@H](O)[C@]5(C)[C@@H](C7=CC(=O)OC7)CC[C@]65O)C4)O[C@@H]3C)O[C@@H]2C)C[C@H](O)[C@@H]1O [Digoxin]", -7.0]
]}
